Molecular target: Avi-KRAS G12V (1-169) GppNHp/RAF1 RBD-3xFLAG (52-151) (Homo sapiens, UniProt P01116, G12V)
Construct: Avi-KRAS G12V (1-169)
Sequence (P01116 1-169 isoform P01116-2 G12V): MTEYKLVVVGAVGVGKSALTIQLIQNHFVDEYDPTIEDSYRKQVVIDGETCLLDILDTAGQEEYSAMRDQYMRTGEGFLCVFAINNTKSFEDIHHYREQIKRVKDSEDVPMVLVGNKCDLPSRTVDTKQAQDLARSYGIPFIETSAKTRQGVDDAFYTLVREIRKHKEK
Test: Raf1-KRAS G12V-GppNHP disruption HTRF assay (Biological Example 1)
Type: binding
Settings: KRAS G12V, GppNHp-loaded; class symbols
Quantity Measured: IC50

Reading of IC50 for CCN(c1nc(OCC23CCCN2CC(F)C3)nc2c(F)c(-c3ccc(F)c4sc(N)c(C#N)c34)c(C(F)(F)F)cc12)C1CCN(C(=O)c2ccccn2)C1 (stereo not shown) [Compound 737] with Avi-KRAS G12V (1-169) GppNHp/RAF1 RBD-3xFLAG (52-151) (Homo sapiens, UniProt P01116, G12V): < 100 nM

Reading of IC50 for CCN(c1nc(OC[C@@]23CCCN2C[C@H](F)C3)nc2c(F)c(-c3ccc(F)c4sc(N)c(C#N)c34)c(C(F)(F)F)cc12)[C@H]1CCN(C(=O)[C@@H]2C[C@@H]2C)C1 (atropisomer, axis not shown) [Compound 689] with Avi-KRAS G12V (1-169) GppNHp/RAF1 RBD-3xFLAG (52-151) (Homo sapiens, UniProt P01116, G12V): < 100 nM

Reading of IC50 for [2H]C1([2H])CN2C[C@H](F)C[C@]2(COc2nc(N3C[C@H]4C[C@@H]3CO4)c3cc(C(F)(F)F)c(-c4ccc(F)c5sc(N)c(C#N)c45)c(F)c3n2)C1 [Compound 567] with Avi-KRAS G12V (1-169) GppNHp/RAF1 RBD-3xFLAG (52-151) (Homo sapiens, UniProt P01116, G12V): 100 to 1000 nM

Reading of IC50 for C[C@@H]1[C@H](N(C)c2nc(OC[C@]34C[C@@H](F)CN3CC3(CC3)C4)nc3c(F)c(-c4ccc(F)c5sc(N)c(C#N)c45)c(Cl)cc23)CCN1C(=O)C1CC1 [Compound 593] with Avi-KRAS G12V (1-169) GppNHp/RAF1 RBD-3xFLAG (52-151) (Homo sapiens, UniProt P01116, G12V): 1000 to 10000 nM

Reading of IC50 for [2H]C([2H])([2H])C([2H])(C(=O)N1CC[C@H](N(CC)c2nc(OC[C@@]34CCCN3C[C@H](F)C4)nc3c(F)c(-c4ccc(F)c5sc(N)c(C#N)c45)c(C(F)(F)F)cc23)C1)C([2H])([2H])[2H] (atropisomer, axis not shown) [Compound 707] with Avi-KRAS G12V (1-169) GppNHp/RAF1 RBD-3xFLAG (52-151) (Homo sapiens, UniProt P01116, G12V): < 100 nM

Reading of IC50 for CCN(c1nc(OC[C@@]23CCCN2C[C@H](F)C3)nc2c(F)c(-c3ccc(F)c4sc(N)c(C#N)c34)c(C(F)(F)F)cc12)[C@H]1CCN(C(=O)c2cocn2)C1 (atropisomer, axis not shown) [Compound 719] with Avi-KRAS G12V (1-169) GppNHp/RAF1 RBD-3xFLAG (52-151) (Homo sapiens, UniProt P01116, G12V): < 100 nM

Reading of IC50 for CCN(c1nc(OC[C@@]23CCCN2C[C@H](F)C3)nc2c(F)c(-c3ccc(F)c4sc(N)c(C#N)c34)c(C(F)(F)F)cc12)[C@@H]1CCN(C(=O)[C@H]2CCO2)[C@@H]1C (atropisomer, axis not shown) [Compound 788] with Avi-KRAS G12V (1-169) GppNHp/RAF1 RBD-3xFLAG (52-151) (Homo sapiens, UniProt P01116, G12V): < 100 nM
